- METHOD NOTES: NCI Yeast Anticancer Drug Screen. Data for the sgs1 mgt1 strain (AID 161);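 also: 0% = growth of cultures given vehicle only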
- CONDITION NOTES: S. cerevisiae sgs1 mgt1 strain, at 50.0 µM, active compounds read high
The panel holds about 79,000 compounds, 15% with a hit somewhere; the sample as a whole holds those more often. The source made the active and inactive calls. Rule as the data show it: active = growth inhibition above about 70%; inactive = the rest.

MOLECULE	growth inhibition
Cc1ccc(NC(=O)c2cc(S(=O)(=O)n3cc[nH]c3=O)c(S)cc2Cl)cc1	23.9% (inactive)
Cc1cc(C(=O)O)c(C#N)c(=O)n1C	-12.6% (inactive)
N#CC1(C(N)=O)OC1c1ccccc1Cl (configuration not stated)	1.3% (inactive)
CN(C)c1nc2ccc(Cl)cc2c(=O)[nH]1	-14% (inactive)
CCOC(=O)c1nc(SC)sc1NC(=O)c1ccc([N+](=O)[O-])cc1	-30.8% (inactive)
CCOC(=O)NC(=O)c1cn(C2OC(COC(=O)CCCCCCCCC(=O)OCC3OC(n4cc(C(=O)NC(=O)OCC)c(=O)[nH]c4=O)C4OC(C)(C)OC34)C3OC(C)(C)OC32)c(=O)[nH]c1=O (configuration not stated)	-27.9% (inactive)
CCOC(=O)C(NC(=O)CC)(Nc1ccc(S(=O)(=O)Nc2onc(C)c2C)cc1)C(F)(F)F (configuration not stated)	-8.85% (inactive)
C=C(CC(O)c1ccccc1)C(=O)Nc1ccccc1OC (configuration not stated)	13.3% (inactive)
COC(=O)N1CCc2c(nc(N(C)CCO)[nH]c2=O)C1	-47.2% (inactive)
CCCC1=C(CC)C(C(=O)Nc2c(C)cccc2C)=NC(S)N1 (configuration not stated)	0.65% (inactive)
C=C1CCC2C(C)(CO)C(O)CCC2(C)C1CCC1=CCOC1=O (configuration not stated)	-3.2% (inactive)
O=C1C2C(Cl)C(Cl)C(Cl)C(Cl)C2C(=O)N1NC1CCC([N+](=O)[O-])CC1[N+](=O)[O-] (configuration not stated)	-18.5% (inactive)
O=C(COc1ccc(Cl)cc1)N(c1ccccc1)C1CCCCC1	97.5% (active)
CNC(=O)OCc1c(COC(=O)NC)c(C)n(-c2ccc(OC)cc2)c1C	42.1% (inactive)
COc1ccc(-c2nnc(CCCCCCCCc3nnc(-c4ccc(OC)cc4)n3N)n2N)cc1	-9.45% (inactive)
O=C(Nc1ccccc1F)C(c1ccccc1)c1ccccc1	3.25% (inactive)
O=c1[nH]cnc2c1cnn2-c1ccccc1	9.7% (inactive)
CN(C)c1ccc(C(=Cc2ccccc2)c2ccc(N(C)C)cc2)cc1	-2.8% (inactive)
C=C1C(=O)OC2C1C(OC(=O)/C(=C/C)COC(C)=O)CC1(CO1)C1C(OC(=O)/C(=C/C)CO)C=C(C)C21 (configuration not stated)	-21.1% (inactive)
CC(C)(C)c1ccc(O)c(C(=O)O)c1	-5.8% (inactive)
Nc1cccc(CNC(=O)COc2ccc(Cl)cc2C(=O)O)c1	-2.7% (inactive)
Cn1c(=O)c2snnc2n(C)c1=O	-2.65% (inactive)

Values from PubChem BioAssay (NCI)
